Measured values drawn from ChEMBL document CHEMBL1122833 for this set.

# Test system: L1210
# PROTOCOL_TEXT: In vitro inhibitory dose that reduces L1210 cell line by 50% when added for a period of 70h
# Assay type: functional
# EXPERIMENTAL_PARAMETERS: Mus musculus, L1210, 70 h; read-out: ID50 (the source's name)
MEASURED_ENDPOINT: pIC50
Note on units: pIC50 is unitless, being -log10 of a concentration expressed in mol/L.

Solved cases (6 shown):
{"COMPOUND": "c1ccc2c(NCCCCCCCNc3c4ccccc4nc4ccccc34)c3ccccc3nc2c1", "OBSERVED_VALUE": 7.30}
{"COMPOUND": "Cn1nc(C(=O)NCCNc2c3ccccc3nc3ccccc23)cc1C(=O)NCCNc1c2ccccc2nc2ccccc12", "OBSERVED_VALUE": 7.89}
{"COMPOUND": "Cn1nc(C(=O)NCCCNc2c3ccccc3nc3ccccc23)cc1C(=O)NCCCNc1c2ccccc2nc2ccccc12", "OBSERVED_VALUE": 7.26}
{"COMPOUND": "Cn1nc(C(=O)NCCCCNc2c3ccccc3nc3ccccc23)cc1C(=O)NCCCCNc1c2ccccc2nc2ccccc12", "OBSERVED_VALUE": 7.62}
{"COMPOUND": "c1ccc2c(NCCCCCCCCCNc3c4ccccc4nc4ccccc34)c3ccccc3nc2c1", "OBSERVED_VALUE": 6.80}
{"COMPOUND": "Nc1c2ccccc2nc2ccccc12 [AMINACRINE]", "OBSERVED_VALUE": 5.72}

Challenge: For the compound c1ccc2c(NCCN3CCN(CCNc4c5ccccc5nc5ccccc45)CC3)c3ccccc3nc2c1 , what pIC50 is on record?
Response given: 7.11

Challenge: For the compound c1ccc2c(NCCCCNc3c4ccccc4nc4ccccc34)c3ccccc3nc2c1 , what pIC50 is on record?
Response given: 4.97

Challenge: For the compound c1ccc2c(NCCCCCCCCCCNc3c4ccccc4nc4ccccc34)c3ccccc3nc2c1 , what pIC50 is on record?
Response given: 6.55

Challenge: For the compound c1ccc2c(NCCNCCNCCNc3c4ccccc4nc4ccccc34)c3ccccc3nc2c1 , what pIC50 is on record?
Response given: 5.54

Challenge: For the compound c1ccc2c(NCCCCCNc3c4ccccc4nc4ccccc34)c3ccccc3nc2c1 , what pIC50 is on record?
Response given: 5.43

Challenge: For the compound c1ccc2c(NCCCCCCCCNc3c4ccccc4nc4ccccc34)c3ccccc3nc2c1 , what pIC50 is on record?
Response given: 6.77

Challenge: For the compound CN(CCCNc1c2ccccc2nc2ccccc12)CCCNc1c2ccccc2nc2ccccc12 , what pIC50 is on record?
Response given: 6.11

* * *

# PROTOCOL_TEXT: Lipophilicity (Rm)
# Type: physicochemical
# EXPERIMENTAL_PARAMETERS: chromatographic, drug cations at pH 1-2
Listed molecules paired with reported Rm
Would you mind answering with just the numeric figure?

{"ENTRY_SMILES": "O=C(CCNc1c2ccccc2nc2ccccc12)NCCNc1c2ccccc2nc2ccccc12", "MEASURED_ENDPOINT": "Rm", "OBSERVED_VALUE": -0.43}
{"ENTRY_SMILES": "Nc1c2ccccc2nc2ccccc12", "MEASURED_ENDPOINT": "Rm", "OBSERVED_VALUE": -0.08}
{"ENTRY_SMILES": "c1ccc2c(NCCCN3CCN(CCCNc4c5ccccc5nc5ccccc45)CC3)c3ccccc3nc2c1", "MEASURED_ENDPOINT": "Rm", "OBSERVED_VALUE": -0.72}
{"ENTRY_SMILES": "c1ccc2c(NCCCCCCNc3c4ccccc4nc4ccccc34)c3ccccc3nc2c1", "MEASURED_ENDPOINT": "Rm", "OBSERVED_VALUE": 0.15}
{"ENTRY_SMILES": "O=C(CCCNc1c2ccccc2nc2ccccc12)NCCCNc1c2ccccc2nc2ccccc12", "MEASURED_ENDPOINT": "Rm", "OBSERVED_VALUE": -0.12}
{"ENTRY_SMILES": "c1ccc2c(NCCCCNCCCNc3c4ccccc4nc4ccccc34)c3ccccc3nc2c1", "MEASURED_ENDPOINT": "Rm", "OBSERVED_VALUE": -0.39}

Challenge: For the molecule c1ccc2c(NCCCNCCNCCCNc3c4ccccc4nc4ccccc34)c3ccccc3nc2c1 , what Rm is on record?
Response given: -0.86

Challenge: For the molecule c1ccc2c(NCCNCCNCCNc3c4ccccc4nc4ccccc34)c3ccccc3nc2c1 , what Rm is on record?
Response given: -0.9

Challenge: For the molecule O=C(CNc1c2ccccc2nc2ccccc12)NCCCNc1c2ccccc2nc2ccccc12 , what Rm is on record?
Response given: -0.24

Challenge: For the molecule c1ccc2c(NCCCCCCCCCCNc3c4ccccc4nc4ccccc34)c3ccccc3nc2c1 , what Rm is on record?
Response given: 0.45

Challenge: For the molecule Cn1nc(C(=O)NCCCNc2c3ccccc3nc3ccccc23)cc1C(=O)NCCCNc1c2ccccc2nc2ccccc12 , what Rm is on record?
Response given: 0

Challenge: For the molecule c1ccc2c(NCCCCCCCCNc3c4ccccc4nc4ccccc34)c3ccccc3nc2c1 , what Rm is on record?
Response given: 0.28

* * *

Listed molecules paired with reported IC50
# Tested on: L1210
# PROTOCOL_TEXT: In vitro inhibitory dose that reduces L1210 cell line by 50% when added for a period of 70h
# Format: functional
# EXPERIMENTAL_PARAMETERS: Mus musculus, L1210, 70 h; read-out: ID50 (the source's name)

Challenge: For the molecule O=C(CCCNc1c2ccccc2nc2ccccc12)NCCNc1c2ccccc2nc2ccccc12 , what IC50 is on record?
Response given: > 3.5 µM

Challenge: For the molecule O=C(CCNc1c2ccccc2nc2ccccc12)NCCCNc1c2ccccc2nc2ccccc12 , what IC50 is on record?
Response given: > 3.5 µM

Challenge: For the molecule O=C(CNc1c2ccccc2nc2ccccc12)NCCCNc1c2ccccc2nc2ccccc12 , what IC50 is on record?
Response given: > 3.5 µM

Challenge: For the molecule O=C(CCCNc1c2ccccc2nc2ccccc12)NCCCNc1c2ccccc2nc2ccccc12 , what IC50 is on record?
Response given: > 3.5 µM

Challenge: For the molecule O=C(CCNc1c2ccccc2nc2ccccc12)NCCNc1c2ccccc2nc2ccccc12 , what IC50 is on record?
Response given: > 3.5 µM

Challenge: For the molecule O=C(CNc1c2ccccc2nc2ccccc12)NCCNc1c2ccccc2nc2ccccc12 , what IC50 is on record?
Response given: > 4 µM

* * *

Listed compounds paired with reported Rm
# PROTOCOL_TEXT: Lipophilicity (Rm)
# Assay type: physicochemical
# EXPERIMENTAL_PARAMETERS: chromatographic, drug cations at pH 1-2
Would you mind answering with just the numeric figure?

{"ENTRY_SMILES": "c1ccc2c(NCCCCCNc3c4ccccc4nc4ccccc34)c3ccccc3nc2c1", "MEASURED_ENDPOINT": "Rm", "OBSERVED_VALUE": 0.02}
{"ENTRY_SMILES": "O=C(CCCNc1c2ccccc2nc2ccccc12)NCCNc1c2ccccc2nc2ccccc12", "MEASURED_ENDPOINT": "Rm", "OBSERVED_VALUE": -0.19}
{"ENTRY_SMILES": "CN(CCCNc1c2ccccc2nc2ccccc12)CCCNc1c2ccccc2nc2ccccc12", "MEASURED_ENDPOINT": "Rm", "OBSERVED_VALUE": -0.65}
{"ENTRY_SMILES": "Cn1nc(C(=O)NCCNc2c3ccccc3nc3ccccc23)cc1C(=O)NCCNc1c2ccccc2nc2ccccc12", "MEASURED_ENDPOINT": "Rm", "OBSERVED_VALUE": -0.3}
{"ENTRY_SMILES": "c1ccc2c(NCCCNCCCNc3c4ccccc4nc4ccccc34)c3ccccc3nc2c1", "MEASURED_ENDPOINT": "Rm", "OBSERVED_VALUE": -0.53}

Now for another entry.
Challenge: For the compound c1ccc2c(NCCCCCCCCCNc3c4ccccc4nc4ccccc34)c3ccccc3nc2c1 , what Rm is on record?
Response given: 0.4

* * *

# PROTOCOL_TEXT: Lipophilicity (Rm)
# Assay type: physicochemical
# EXPERIMENTAL_PARAMETERS: chromatographic, drug cations at pH 1-2
Listed molecules paired with reported Rm
Would you mind answering with just the numeric figure?

Solved cases (3 shown):
{"ENTRY_SMILES": "c1ccc2c(NCCN3CCN(CCNc4c5ccccc5nc5ccccc45)CC3)c3ccccc3nc2c1", "MEASURED_ENDPOINT": "Rm", "OBSERVED_VALUE": -0.77}
{"ENTRY_SMILES": "c1ccc2c(NCCCCCCCNc3c4ccccc4nc4ccccc34)c3ccccc3nc2c1", "MEASURED_ENDPOINT": "Rm", "OBSERVED_VALUE": 0.21}
{"ENTRY_SMILES": "c1ccc2c(NCCCCNc3c4ccccc4nc4ccccc34)c3ccccc3nc2c1", "MEASURED_ENDPOINT": "Rm", "OBSERVED_VALUE": -0.21}

Challenge: For the molecule O=C(CNc1c2ccccc2nc2ccccc12)NCCNc1c2ccccc2nc2ccccc12 , what Rm is on record?
Response given: -0.41

Challenge: For the molecule Cn1nc(C(=O)NCCCCNc2c3ccccc3nc3ccccc23)cc1C(=O)NCCCCNc1c2ccccc2nc2ccccc12 , what Rm is on record?
Response given: 0.11

Challenge: For the molecule O=C(CCNc1c2ccccc2nc2ccccc12)NCCCNc1c2ccccc2nc2ccccc12 , what Rm is on record?
Response given: -0.28
